Origin of values: patent US20100260765A1

biological target: KDR (human, UniProt P35968 20-1356); experiment: cell-based or functional assay
Sequence (P35968 20-1356): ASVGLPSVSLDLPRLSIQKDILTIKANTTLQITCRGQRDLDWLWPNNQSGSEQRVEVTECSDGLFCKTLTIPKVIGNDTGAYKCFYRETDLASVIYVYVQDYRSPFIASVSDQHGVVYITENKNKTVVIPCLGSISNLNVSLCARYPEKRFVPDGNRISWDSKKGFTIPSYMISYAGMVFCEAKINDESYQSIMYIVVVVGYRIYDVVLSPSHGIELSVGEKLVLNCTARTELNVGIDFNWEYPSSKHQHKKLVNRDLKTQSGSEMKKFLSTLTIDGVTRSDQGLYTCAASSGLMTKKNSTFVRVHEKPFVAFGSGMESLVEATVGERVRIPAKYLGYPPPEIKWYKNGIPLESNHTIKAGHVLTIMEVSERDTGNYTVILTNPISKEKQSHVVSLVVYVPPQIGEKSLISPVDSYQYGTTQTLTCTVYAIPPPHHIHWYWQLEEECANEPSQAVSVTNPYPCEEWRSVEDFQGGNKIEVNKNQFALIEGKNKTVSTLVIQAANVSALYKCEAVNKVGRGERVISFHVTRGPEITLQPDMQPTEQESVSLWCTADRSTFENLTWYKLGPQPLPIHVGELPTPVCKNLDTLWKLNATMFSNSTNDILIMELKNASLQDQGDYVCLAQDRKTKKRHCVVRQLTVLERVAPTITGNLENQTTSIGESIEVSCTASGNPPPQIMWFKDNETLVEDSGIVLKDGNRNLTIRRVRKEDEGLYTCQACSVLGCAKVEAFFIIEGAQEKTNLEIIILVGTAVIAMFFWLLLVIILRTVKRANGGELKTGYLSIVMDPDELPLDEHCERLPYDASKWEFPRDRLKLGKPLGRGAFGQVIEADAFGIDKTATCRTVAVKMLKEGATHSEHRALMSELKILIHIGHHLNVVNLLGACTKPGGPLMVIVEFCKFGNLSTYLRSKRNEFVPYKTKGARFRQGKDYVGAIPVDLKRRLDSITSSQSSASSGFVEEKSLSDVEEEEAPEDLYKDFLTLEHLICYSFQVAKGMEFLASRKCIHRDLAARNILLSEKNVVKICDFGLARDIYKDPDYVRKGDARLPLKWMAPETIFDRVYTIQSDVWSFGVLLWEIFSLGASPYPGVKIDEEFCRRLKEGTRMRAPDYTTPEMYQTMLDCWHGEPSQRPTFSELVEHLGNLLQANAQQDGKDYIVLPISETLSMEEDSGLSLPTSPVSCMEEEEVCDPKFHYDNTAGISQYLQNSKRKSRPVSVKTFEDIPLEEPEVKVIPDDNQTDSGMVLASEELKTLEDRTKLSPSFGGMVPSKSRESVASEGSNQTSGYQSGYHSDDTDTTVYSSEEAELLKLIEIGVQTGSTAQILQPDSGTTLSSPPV
Quantity Measured: % of Max VEGF KDR pTyr Activity (at 133 nM antibody concentration), Average
The answer should read as a number with its unit following.

// % of Max VEGF KDR pTyr Activity (at 133 nM antibody concentration), Average lookup, binder = 30D7 (antibody, V domains shown) VH: QVPLVESGGGVVQPGRSLRLSCAASGFTFSSYGMHWVRQAPGKGLEWVAVIWYDGSNKYYADSVKGRFTISRDNSKNTLYLQMNSLRAEDTAVYYCARGVTMVRGVIIARYYYGLDVWGQGTTVTVSS VL: DIVMTQTPLSSPVTLGQPASISCRSSQSLVHSDGNTYLSWLQQRPGQPPRLLIYKISNRFFGVPDRFSGSGAGTDFTLKIGRVEAEDVGLYYCMQSTQFPLTFGGGTKVEIK , result: 12%

The binder identified as 32G7 (antibody, V domains shown) VH: EVQLVESGGGLVKPGGSLRLSCAASGFTISSYSMNWVRQAPGKGLEWVSFISSRSNYIYYADSVKGRFTISRDNAKNSLYLQMNSLRAEDTAVYYCSKDDWFEELWGQGTLVTVSS VL: DIQMTQSPSSLSASVGDRVTITCRASQDIRNDLGWYQQKPGKAPKRLIYAASSLQSGVPSRFSGSGSGTEFTLTISSLQPEDFATYYCLQHNSFPWTFGQGTKVEIK registered its % of Max VEGF KDR pTyr Activity (at 133 nM antibody concentration), Average at 9%
